Listed molecules paired with reported RLU
Target: human TAS2R14 (Homo sapiens, UniProt Q9NYV8)
Construct: expressed in transfected cells; host or cells: HEK293T-Gα16gust44
Sequence (Q9NYV8 whole entry): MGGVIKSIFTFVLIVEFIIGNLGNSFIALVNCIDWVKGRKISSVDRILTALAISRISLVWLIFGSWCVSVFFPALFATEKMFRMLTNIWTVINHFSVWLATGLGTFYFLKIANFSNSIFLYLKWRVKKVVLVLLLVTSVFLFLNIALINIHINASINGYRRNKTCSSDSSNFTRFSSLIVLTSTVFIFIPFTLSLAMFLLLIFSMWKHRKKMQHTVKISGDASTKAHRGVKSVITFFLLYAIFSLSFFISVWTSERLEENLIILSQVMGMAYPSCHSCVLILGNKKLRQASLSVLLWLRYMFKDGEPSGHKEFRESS
Assay: Calcium imaging assay (FLIPR), HEK293T-Gα16gust44 cells transfected with human TAS2R14
Type: cell-based
Details: TAS2R14 trace; Time (s) 2 (Taurocholic Acid 2.016)
Protocol: This set of bile acids was chosen because of their commercial availability in high purities, their diversity within the class of bile acids and their previous detection and quantitation in human blood. Stock solutions were prepared in DMSO. […] Measured data were negative control corrected by subtracting the signal of the mock-transfected cells and exported to Microsoft Excel using the FLIPR software ScreenWorks 4.2. […]
Just the number in RLU, nothing appended.

Fill blank: measured RLU of the molecule C[C@H](CCC(=O)NCCS(=O)(=O)O)[C@H]1CC[C@H]2[C@@H]3[C@H](O)C[C@@H]4C[C@H](O)CC[C@]4(C)[C@H]3C[C@H](O)[C@]12C [Taurocholic Acid, taurocholic acid] is ____.
15.4574

What value of RLU has been reported for the following molecule? C[C@H](CCC(=O)O)[C@H]1CC[C@H]2[C@@H]3[C@H](O)C[C@@H]4C[C@H](O)CC[C@]4(C)[C@H]3C[C@H](O)[C@]12C [Cholic Acid, cholic acid]
8.733
